Origin of the recorded values: ChEMBL document CHEMBL1152649

system: SF-539; assay: Antiproliferative activity against human SF539 cells assessed as cell growth at 10 uM; type: functional; conditions: read-out: Activity
Examples of compounds with documented growth at 10 µM follow.
// units = %; emit number, no label

> print(dat)
                                  structure  unitspec  testresult
1  N#Cc1ccc(-c2nc3ccc4c(c3[nH]2)C(=O)c2ccccc2C4=O)cc1         %         104

Now look at this one.
## Task Returns the measured growth at 10 µM for the input compound. Input: CN(C)c1ccc(-c2nc3ccc4c(c3[nH]2)C(=O)c2ccccc2C4=O)cc1
## Result 111

###

assay: Antiproliferative activity against human Hs 578T cells assessed as cell growth at 10 uM; format: functional; details: read-out: Activity
experimentalReadout: growth at 10 µM
Show the value, then the unit it is measured in.

Look over these answered cases.
> print(dat)
                                  structure  testresult
1    CCc1nc2ccc3c(c2[nH]1)C(=O)c1ccccc1C3=O      -18.6%
2  CN(C)c1ccc(-c2nc3ccc4c(c3[nH]2)C(=O)c2ccccc2C4=O)cc1        109%
3           O=C1c2ccccc2C(=O)c2c1ccc1nsnc21       -7.4%
4  O=C1c2ccccc2C(=O)c2c1ccc1nc(-c3ccc4c(c3)OCO4)[nH]c21        106%
5  Cc1ccc(-c2nc3ccc4c(c3[nH]2)C(=O)c2ccccc2C4=O)cc1        138%

## Task Returns the measured growth at 10 µM for the input molecule. Input: O=C1c2ccccc2C(=O)c2c1ccc1nccnc21
## Result 76.8%

###

Examples of compounds with documented viability at 100 µM follow.
assay: Cytotoxicity against human H1299 cells at 100 uM after 48 hrs by MTT assay; assay type: functional; details: NCI-H1299, 48 h
// units = %; emit number, no label

## Task Returns the measured viability at 100 µM for the input compound. Input: N#Cc1ccc(-c2nc3ccc4c(c3[nH]2)C(=O)c2ccccc2C4=O)cc1
## Result 19

## Task Now the same for CCC(C)c1nc2ccc3c(c2[nH]1)C(=O)c1ccccc1C3=O (stereo not drawn)
## Result 43

## Task Now the same for CN(C)c1ccc(-c2nc3ccc4c(c3[nH]2)C(=O)c2ccccc2C4=O)cc1
## Result 22

## Task Now the same for CCCCc1nc2ccc3c(c2[nH]1)C(=O)c1ccccc1C3=O
## Result 20

## Task Now the same for O=C1c2ccccc2C(=O)c2c1ccc1nc(-c3ccccc3)[nH]c21
## Result 34

## Task Now the same for COc1cc(-c2nc3ccc4c(c3[nH]2)C(=O)c2ccccc2C4=O)ccc1O
## Result 38

## Task Now the same for COc1ccc(OC)c(-c2nc3ccc4c(c3[nH]2)C(=O)c2ccccc2C4=O)c1
## Result 13

###

assay: Cytotoxicity against human H1299 cells at 10 uM after 48 hrs by MTT assay; type: functional; details: NCI-H1299, 48 h
Threshold 70%. viability at 10 µM below it: met. viability at 10 µM at it or above: not met.

> print(dat)
                                   compound  classlabel
1           O=C1c2ccccc2C(=O)c2c1ccc1nsnc21         met
2  CC/C=C/c1nc2ccc3c(c2[nH]1)C(=O)c1ccccc1C3=O         met
3  O=C1c2ccccc2C(=O)c2c1ccc1nc(-c3ccc([N+](=O)[O-])cc3)[nH]c21         met
4  COc1ccc(OC)c(-c2nc3ccc4c(c3[nH]2)C(=O)c2ccccc2C4=O)c1         met
5          O=C1c2ccccc2C(=O)c2c1ccc1nccnc21         met

## Task Does this compound meet the criterion viability at 10 µM < 70%? O=C1c2ccccc2C(=O)c2c1ccc1nc(-c3ccc4c(c3)OCO4)[nH]c21
## Result met

## Task Now the same for CC1(c2ccccc2)Nc2ccc3c(c2N1)C(=O)c1ccccc1C3=O (stereo not drawn)
## Result not met

## Task Now the same for N#Cc1ccc(-c2nc3ccc4c(c3[nH]2)C(=O)c2ccccc2C4=O)cc1
## Result not met
